Cited source for all entries: the supplement of paper PMC9170038

Reported apparent KD of K4 kissing-loop reporter values for a set of sequences
tested on: K4 kissing-loop RNA reporter; assay: apparent KD of K4 kissing-loop reporter; higher = weaker reporter binding; settings: Eterna round: R107; input ligand: FMN 200 uM;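 also: bound reporter read as fluorescence of individual clusters on recovered sequencing chips by microscopy, with normalized cluster intensities fitted with a binding model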
MEASUREMENT TYPE: apparent KD of K4 kissing-loop reporter (nM)

PRIMARY SEQUENCE	RECORDED NUMBER
GGAUAGGACAGAGGAUAUGGUAGUGAUGUUACCACGAGACAAAGUCUCGAAAAGCUACAAAGUAGCCCAGAAGGCUGUCCUAUCG [FmnBX 25 #SwitchBubble #StaticStem #Palindromic]	402
CAUAGACAAGUGAUGUUUGUCAUAACCGAAGGAGCGUCUUUAAAGACAGGUAGGUCGCGGAUUAGUUAAGUUAUGAUUCUUUAUG [#19 K4 Arginine A Same State]	602
CAUAGGAAACUAUGUUUCUCUCUUACUGAAGGAGCGCGUGAAAACGCAGGUAGGUCGCAGAAUUUAAAAGAGAGUGAUGUUCUCA [Ex Arginine A K4 11]	431
UAUUAAUUGACGGCCGCCACUAUGGUGAUUUAUUUGUUUGAGUGAUGUUUUGAUGUUUGAUUUUGUAGGACCGGGUUAUGUGUUA [pokcmullin]	962
UGUCAUUGGUCGGCCGCCACUUCAAAAGGUCAAAGACCAGAGUGAUGUUCUUCACGAAACGUGAGAAGGACCGGGACCGAUGACU [TrypBS 12 #SwitchBubble #K4Middle]	226
UGACGUUUGGGAAGGAGCGGAAUGUAAUACGGAGCGCGUGGAGAUGCAGUGAUGUUGCAGAUCCAGGUAGGUCGCCCAAGGGACG [Zati]	95.3
UGAUUGCCAGUGAUGUUGGCAGUGACUGAAGGAGCGCGUGAAAACGCAGGUAGGUCGCAGUUGAGUGCCAAUUGAUCGAAAGAUC [KL-XArg-A5]	286
ACGGGCGGCUGAAGGAGCGGGCGGGCCCGAGUGAUGUUCGGGUGGGCCGUGAGGUCCGGAGCCCAGGUAGGUCGCGGUUCCGCCU [#2 Same State - Arginine B Attempt #14 (HarryS)]	157
UGGAGUUGACGAAAAGUCAACUCCCGAGAAGGAGCGGACGAAAGUCCAGGUAGGUCGCUCACUACCAGUGAUGUUGGUACUAAAA	148
ACACAGAGUUGCCGAGUGAUGUUCGGCUUACGAGGACCGGUACGGCCGCCACUCGUUACUCUGUGUUUUGGACACCAAGGCGUCG [Tionzaanon]	651
GGGAGUGAUGUUCCCACGUUGUCGGUCCUCCGAGGACCGGUACGGCCGCCACUCGCGACCCAGUGAUGUUGGGACUCACCGUACC [Exclusion Tryptophan A Gf 12]	509
GAAGUACAGGCGGCCGCCACUAGUGAUGUUAGUGAUAAAAGAUAAAGUAUAUAUCGGCAUGUAGAUAGGACCGGGCCUGAUGGAG [uiiumullin]	118
CUAACGGUACGAGUGAUGUUCAGCAAGGAUACCAGCGGACAGUCACGCCCUUGGCAGCCUAGUUUCUACCCGUCGGAAUUUCUUA [theeternabot_sameState_KL_Theo_A_2]	623
AAGCAGUCACUCGAACCCAUCGAAGAUGGUCGAGGACCGGUACGGCCGCCACUCGGAGUGAUGUUCCGCAGACUGCAAAAUAAAA	376
ACACUUUACGUAGGAUAUGCGACGAGUGAUGUUCGUCAGGCGGCCUUAGAUUAAACAAGCCGCCUAGCAGAAGGACGGGCAGUGU [Qumatiri]	133
GGAUUGCCAGUGAUGUUGGCAUAAUCUGAAGGAGCGCGUGAAAACGCAGGUAGGUCGCAGAACCUUGCCAACUGAUCGAAAGAUC [Ex Arginine A K4 30]	145
UGUUUUUACUGAAGGAGCGGCAAUUGAUACGUAGAUAUAGUGAUGUUAUAUAAGAUAGAGAGCCAGGUAGGUCGCAGAGUUUUUC [ExArgB.Z]	167
AGGAAGUGAGAAGGAUAUUACACUCGGAAGCGCUAGUGAUGUUAGCAUAGAAACAAGGGAACAUGGUAAGAAGGUCUUACAAUGA [theeternabot_sameState_KL_FMN_B_2]	76.6
UCAUCGGUACAAGGAUAUUAGAGGUAGUGAUGUUACCCGUUUUUUAUACAUCGAUGUCACCCUAACUAAGAAGGUGUUCAAACUU [theeternabot_exclusion_KL_FMN_B_7]	62.5
UAAAACGCUUGAAUAACAAGCGAAAAUUCGCGAGGACCGGUACGGCCGCCACUCGCUAACUGCGAGUGAUGUUCGAUAAUAAAAU [Mat - Mod of OpenEnded 3 - D4]	149
UGACUGGAUGGAAGGAGCGCUAAACUCCUAGUGAUGUUAGGGAUAUGAGGCAAAGCCUCGAAGCAGGUAGGUCGCCAUCUAGUCU [FiskerMod 20 - Jieux - Same State - Arginine B]	159
UUACCAAGUGAUGUUUGGAAAUAUCCUAGGCAGGAUAUGCGGAAACGCAGAAGGGCCACCUUAUAGUGAAGGAAACUUCGCUAUU [Ex FMN A 2]	163
ACCUACCAUUAGUGAUGUUAAUGGACGGAAGGAGCGCAGAUAUCUGCAGGUAGGUCGCCGAAGGCUAGACAUUGUCUAGCCAUUU [AK1.3 SS Arginine A]	192
